The measurements presented in this section are drawn from ChEMBL document CHEMBL4715933.

Could you please report measured half-life for the items listed next?
- PROCEDURE_SUMMARY: Half life in Wistar Han rat at 0.1 mg/kg, iv
- Assay type: ADME, organism-based
- RECORDED_CONDITIONS: in vivo
One number for each entry, in h.

Reference set (3 entries):
> print(dat)
                               input.smiles  property.name  observed.value
1  Cc1cccc(F)c1-c1cc2c(cnn2-c2ccc(N3CCN(C)CC3)cc2)cc1C#N      half-life             2.2
2  COc1cccc(F)c1-c1cc2c(cn1)cnn2-c1cccc(N2CC[C@H](N(C)C)C2)n1      half-life             1.2
3  COc1cccc(F)c1-c1cc2c(cn1)cnn2-c1cccc(N2CCN(C)CC2)n1      half-life             2.3

Note: attention shifts to another entry.
[ask] Reported half-life for `COc1cccc(F)c1-c1cc2c(cnn2-c2cccc(N3CCN(C)CC3)n2)cc1C#N` : what is it?
[reply] 3.1

====

- Species: Homo sapiens
- PROCEDURE_SUMMARY: Selectivity ratio of IC50 for JAK1 (unknown origin) by ATP competitive binding assay to IC50 for N-terminal GST-tagged human recombinant HPK1 (1 to 346 residues ) expressed in baculovirus-infected Sf9 cells by HTRF lanthascreen binding assay
PROPERTY_NAME: Ratio IC50
One number for each entry.

> print(dat)
                               input.smiles  property.name  observed.value
1  C[C@@H]1CN(c2cc(-n3ncc4ccc(-c5cnn6c5OCCC6)cc43)ccn2)C[C@H](C)N1C     Ratio IC50               7

# batch size: 5; output Ratio IC50 per entry
1. COc1cccc(F)c1-c1cc2c(cn1)cnn2-c1cccc(N2CC3(CCCNC3)C2)n1
2. COc1cccc(F)c1-c1cc2c(cn1)cnn2-c1cccc(N2CC(N)C2)n1
3. Cc1cccc(F)c1-c1cc2c(cn1)cnn2-c1ccc(N2CCN(C)CC2)cc1
4. COc1cccc(F)c1-c1cc2c(cn1)cnn2-c1cccc(N2CC[C@H](N(C)C)C2)n1
5. CN1CCN(c2cc(-c3n[nH]c4ccc(-c5cnn6c5CCC6)cc34)ccn2)CC1

[reply]
792
59
83
3070
205

# batch size: 2; output Ratio IC50 per entry
1. COc1cccc(F)c1-c1cc2c(cn1)cnn2-c1ccc(N2CCOCC2)cc1
2. COc1cccc(F)c1-c1cc2c(cn1)cnn2-c1cccc(N2CC3CCC(C2)N3C)n1

[reply]
1: 99; 2: 8960

# batch size: 2; output Ratio IC50 per entry
1. COc1cccc(F)c1-c1cc2c(cn1)cnn2-c1cc(Cl)cc(N2CCN(C)CC2)n1
2. COc1cccc(-n2ncc3cnc(-c4c(F)cccc4OC)cc32)n1

[reply]
1: 347; 2: 97

====

- PROCEDURE_SUMMARY: Volume of distribution in Wistar Han rat at 0.1 mg/kg, iv
- Assay type: ADME, organism-based
- RECORDED_CONDITIONS: in vivo
Is Vd at least 2 L/kg? Then met. If not, not met.

# example entries with known answers
> print(dat)
                               input.smiles  assigned.class
1  C[C@@H]1CN(c2cc(-n3ncc4ccc(-c5cnn6c5OCCC6)cc43)ccn2)C[C@H](C)N1C         not met
2  COc1cccc(F)c1-c1cc2c(cn1)cnn2-c1cccc(N2CC[C@H](N(C)C)C2)n1         not met
3  COc1cccc(F)c1-c1cc2c(cn1)cnn2-c1cccc(N2CCN(C)CC2)n1         not met

[ask] Decide: is the reported value of Vd for `CN1CCN(c2cc(-c3n[nH]c4cnc(-c5cnn6c5CCC6)cc34)ccn2)CC1` equal to or greater than 2 L/kg?
[reply] met

[ask] Decide: is the reported value of Vd for `CN1CCN(c2cc(-c3n[nH]c4ccc(-c5cnn6c5CCC6)cc34)ccn2)CC1` equal to or greater than 2 L/kg?
[reply] met

[ask] Decide: is the reported value of Vd for `COc1cccc(F)c1-c1cc2c(cnn2-c2cccc(N3CCN(C)CC3)n2)cc1C#N` equal to or greater than 2 L/kg?
[reply] met

[ask] Decide: is the reported value of Vd for `Cc1cccc(F)c1-c1cc2c(cnn2-c2ccc(N3CCN(C)CC3)cc2)cc1C#N` equal to or greater than 2 L/kg?
[reply] met

[ask] Decide: is the reported value of Vd for `COc1ccncc1-c1ccc2cnn(-c3ccnc(N4CCOCC4)c3)c2c1` equal to or greater than 2 L/kg?
[reply] met
